Provenance of the data: ChEMBL document CHEMBL4020755

assay: Cmax in Sprague-Dawley rat at 10 mg/kg administered orally measured up to 24 hrs by LC-MS/MS analysis; assay type: ADME, organism-based; parameters: dose 10 mg/kg, route oral; settings: in vivo, po
Observable: Cmax (ng/mL)

A = CNC(=O)c1ccc(N2C(=S)N(c3cnc(C#N)c(C(F)(F)F)c3)C(=O)C23CCC3)cc1F [APALUTAMIDE]
B = [2H]C([2H])([2H])NC(=O)c1ccc(N2C(=S)N(c3cnc(C#N)c(C(F)(F)F)c3)C(=O)C23CCC3)cc1F
Given A and B , report the one with the higher recorded Cmax. Reply with the label of the item you choose.
B

----------
assay: Cmax in Balb/c mouse at 10 mg/kg administered orally measured up to 24 hrs by LC-MS/MS analysis; format: ADME, organism-based; parameters: dose 10 mg/kg, route oral; conditions: in vivo, po
Observable: Cmax (ng/mL)

Record excerpt, results attached:
- Molecule: "[2H]c1cc(C(=O)NC)c(F)c([2H])c1N1C(=S)N(c2cnc(C#N)c(C(F)(F)F)c2)C(=O)C12CCC2"
  Cmax (ng/mL): 3480
- Molecule: "[2H]C([2H])([2H])NC(=O)c1ccc(N2C(=S)N(c3cnc(C#N)c(C(F)(F)F)c3)C(=O)C23CCC3)cc1F"
  Cmax (ng/mL): 4480
- Molecule: "[2H]c1cc(C(=O)NC([2H])([2H])[2H])c(F)c([2H])c1N1C(=S)N(c2cnc(C#N)c(C(F)(F)F)c2)C(=O)C12CCC2"
  Cmax (ng/mL): 3940

1 = CNC(=O)c1ccc(N2C(=S)N(c3cnc(C#N)c(C(F)(F)F)c3)C(=O)C23CCC3)cc1F [APALUTAMIDE]
2 = [2H]C1([2H])CC([2H])([2H])C12C(=O)N(c1cnc(C#N)c(C(F)(F)F)c1)C(=S)N2c1ccc(C(=O)NC)c(F)c1
Please indicate which has the smaller reported Cmax: 1 , or 2 . Reply with the label of the item you choose.
2
(2: 2170 ng/mL, 1: 3320 ng/mL)
